- test_summary: Estimation of solubility: minimum solvent needed to dissolve a known amount
- Type: physicochemical
- condition: water, room temperature; read-out: Average Solubility
property_label: solubility (mg/mL)
Please reply with the bare figure in mg/mL and do not write the unit itself.

(Q) Given CC1(C)O[C@@H]2[C@@H](CO[C@@]3(COS(N)(=O)=O)OC(C)(C)O[C@@H]23)O1 [topiramate sodium trihydrate] , state its recorded solubility.
(A) 1330

###

- test_summary: Estimation of solubility: minimum solvent needed to dissolve a known amount
- Assay type: physicochemical
- condition: methanol, room temperature, single trials; read-out: Solubility (amount of solid in mL of solvent)
property_label: solubility
# output: number + unit

(Q) Look up solubility for this compound: CC1(C)O[C@@H]2[C@@H](CO[C@@]3(COS(N)(=O)=O)OC(C)(C)O[C@@H]23)O1 [topiramate sodium trihydrate]
(A) 1280 mg/mL

###

- test_summary: Estimation of solubility: minimum solvent needed to dissolve a known amount
- Type: physicochemical
- condition: water, room temperature, single trials; read-out: Solubility (amount of solid in mL of solvent)
property_label: solubility (mg/mL)
Just the number please, in mg/mL, no unit attached.

(Q) Please look up its solubility: CC1(C)O[C@@H]2[C@@H](CO[C@@]3(COS(N)(=O)=O)OC(C)(C)O[C@@H]23)O1 [topiramate sodium trihydrate]
(A) 1240

###

- test_summary: Estimation of solubility: minimum solvent needed to dissolve a known amount
- Format: physicochemical
- condition: THF, room temperature (slight overestimate); read-out: Solubility (amount of solid in mL of solvent)
property_label: solubility
The answer consists of two parts: a number and, after it, its unit.

(Q) May I ask what solubility has been recorded for CC1(C)O[C@@H]2[C@@H](CO[C@@]3(COS(N)(=O)=O)OC(C)(C)O[C@@H]23)O1 [topiramate sodium trihydrate] ?
(A) 44.2 mg/mL
